Cited source for all entries: the supplement of paper PMC10567573

B1: FBXO33 (parent)
chain: RLRGLLRVLRGRPGAGSRRRGRMA

Variants of: B1
Experiment: protein stability index of a GFP-peptide fusion (GPS, HEK-293T) (PSI 1-6); higher = more stable;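 further: lentivirally expressed fusions sorted by FACS into six bins by GFP to DsRed ratio, PSI derived from sequencing read proportions per bin multiplied by bin number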
Conditions: c terminus: a fixed tail appended
Threshold rule: protein stability index greater than or equal to 2 is yes (1); below that, no (0).

| seq | group_label |
| --- | --- |
| RLRPLLRVLRGRPGAGSRRRGRMA | yes (1) |
| RLRGLLRVLRGRPGAGSRRRGMMA | yes (1) |
| RLRGLLRVLRGRPGAGSRRFGRMA | no (0) |
| RERGLLRVLRGRPGAGSRRRGRMA | yes (1) |
| RLRGLLRVLRGRPGAGSRRRGHMA | yes (1) |
| RLRGLIRVLRGRPGAGSRRRGRMA | yes (1) |
| RLRGLLRVLRGRPGAGSRRRGRMD | no (0) |
| RLRGLLRVLRGRPGAGGRRRGRMA | no (0) |
| RLRGLLRVLRGRPGAQSRRRGRMA | no (0) |
| RLRGLKRVLRGRPGAGSRRRGRMA | yes (1) |
| RLRGLLRVLRGRPGAISRRRGRMA | no (0) |
